Hi there, I'd appreciate the recorded normalized growth for every entry that follows.
# methodDescription: chemical genetic growth profiling, strain panel (AID 1159580);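 note: tested at 20 µM; growth read once vehicle control cultures reached saturation at 30 °C; 1 = growth at the plate median or of vehicle wells; lower values mean less growth of the strain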
# measurementConditions: S. cerevisiae deletion strains, growth OD, locus YML094W, strain GIM5, stronger effect = lower value
The whole screen tested about 5,500 compounds, of which about 2,000 (36%) were called active. Another 18% or so got no clear call; they are omitted. Some of the results follow.
Numbers only.

                                   molecule        readouttype  recordednumber
0  OC1(c2ccc(Cl)cc2)CSc2nc3cc(C(F)(F)F)ccc3n21 (stereo not given)  normalized growth            1.07

Provide normalized growth values for the following items, in order.
1. COc1ccc(C=Nc2ccc(O)cc2)cc1
2. Cc1c(S(=O)(=O)c2ccc(Cl)cc2)csc1S(=O)(=O)N/N=C\c1c(Cl)cccc1Cl
3. COc1cc(CC/C(C)=N/O)ccc1OCc1ccc(Cl)cc1Cl

**A:**
1.01
0.988
0.865

Provide normalized growth values for the following items, in order.
1. Cc1onc(-c2ccccc2)c1-c1nc(CSc2ccc(C(F)(F)F)cn2)no1
2. O=C(O)CC(CC(=O)Nc1ccc(I)cc1F)c1ccc(C(F)(F)F)cc1 (stereo not given)
3. O=[N+]([O-])c1cccc(-c2csc(Nc3ccccc3Cl)n2)c1
4. O=c1c2cc(NS(=O)(=O)c3ccc(Cl)cc3)ccc2oc2ncccc12

**A:**
1. 1.02
2. 0.989
3. 0.818
4. 1.08

Provide normalized growth values for the following items, in order.
1. Cc1ccc(/C(N)=N\O)cc1F
2. CC(=O)c1ccc(-c2ccc(Cl)c(Cl)c2)o1
3. CCc1ccccc1NC(C)=O

**A:**
1
0.633
1.03

Provide normalized growth values for the following items, in order.
1. CC(=O)Nc1ccc(S(=O)(=O)Nc2ncccn2)cc1
2. COc1ccc(CNc2ccccc2-c2nc3ccccc3[nH]2)cc1
3. C/C(=N/Nc1c(Cl)cc(Cl)cc1Cl)c1cc(F)ccc1OC(=O)c1ccccc1F

**A:**
1: 0.981; 2: 0.882; 3: 1.01

Provide normalized growth values for the following items, in order.
1. O=C(Nc1ccccc1)NC1CCCC1
2. COC(=O)COc1ccc(C(C)=O)cc1
3. Cc1cscc1S(=O)(=O)c1ccc(Cl)cc1

**A:**
1. 0.96
2. 0.952
3. 0.969

Provide normalized growth values for the following items, in order.
1. Cc1nn(Cc2n[nH]c(=S)o2)c(C)c1Br
2. O=C(NNc1c(Cl)cc(Cl)cc1Cl)NC(=O)c1ccccc1F

**A:**
1. 1.02
2. 1

The reported normalized growth of the molecule Cc1c(S(=O)(=O)c2ccc(Cl)cc2)csc1C(=O)Nc1ccc(N2CCOCC2)c(Cl)c1 was 0.988
